Where these numbers come from: the supplement of paper PMC6555819

// values below are reported PBM binding z-score
Test system: VDR homodimer (NR concentration 270 nM)
ASSAY PROTOCOL: PBM binding z-score (relative to random genomic background probes); higher = stronger binding; sequences stand for … in GC…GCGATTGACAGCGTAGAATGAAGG
ASSAY ENDPOINT: PBM binding z-score

[[record]]
seq_text = "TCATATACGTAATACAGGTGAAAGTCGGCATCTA"
system_under_test = "VDR homodimer (NR concentration 270 nM)"
data_value = 0.145

[[record]]
seq_text = "TCAGACAGCTGAAGGTAACTCAGGTACGCAGTCG"
system_under_test = "VDR homodimer (NR concentration 270 nM)"
data_value = -0.186

[[record]]
seq_text = "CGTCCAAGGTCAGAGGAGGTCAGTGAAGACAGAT"
system_under_test = "VDR homodimer (NR concentration 270 nM)"
data_value = 3.43

[[record]]
seq_text = "TTAGCAAGGTGAAGGTCGTTGATCCCTCTGTAGA"
system_under_test = "VDR homodimer (NR concentration 270 nM)"
data_value = 0.356

[[record]]
seq_text = "CCTATTAGTTGACCATAAGGGCAATCGAAGCTCG"
system_under_test = "VDR homodimer (NR concentration 270 nM)"
data_value = 1.13

[[record]]
seq_text = "CCTATTAGTTGACCATAAGGACAACCGAAGCTCG"
system_under_test = "VDR homodimer (NR concentration 270 nM)"
data_value = 1.1

[[record]]
seq_text = "ATATGTAGGTTGAGGGTCATTCAGGTTGGTTCGC"
system_under_test = "VDR homodimer (NR concentration 270 nM)"
data_value = 3.74

[[record]]
seq_text = "TCGTGTAGGTTACCAATGGGGCATTCAGCTTTCT"
system_under_test = "VDR homodimer (NR concentration 270 nM)"
data_value = -0.0857

[[record]]
seq_text = "TCTAGTTGGTCACAGAGGTCACACACGACGGGTA"
system_under_test = "VDR homodimer (NR concentration 270 nM)"
data_value = 4.18

[[record]]
seq_text = "ACAGTCAGGTGAGTGAAGGTAACTCAGCTGGACG"
system_under_test = "VDR homodimer (NR concentration 270 nM)"
data_value = -0.58

[[record]]
seq_text = "ATCTCTAGGTAACAAATTCAGTGAAAGAGAGGAC"
system_under_test = "VDR homodimer (NR concentration 270 nM)"
data_value = 0.435

[[record]]
seq_text = "ATCGAAAGGTCGAGGGGAGTATAGAGAAAGGGAA"
system_under_test = "VDR homodimer (NR concentration 270 nM)"
data_value = 0.958

[[record]]
seq_text = "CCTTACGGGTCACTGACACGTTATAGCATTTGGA"
system_under_test = "VDR homodimer (NR concentration 270 nM)"
data_value = 0.844

[[record]]
seq_text = "AGTCAAAGTTCGGGACGAGGTAACGTAAAGCACG"
system_under_test = "VDR homodimer (NR concentration 270 nM)"
data_value = 0.532

[[record]]
seq_text = "CCAGACAGGTGAGAAGTTAACTCAGCCTCGATTA"
system_under_test = "VDR homodimer (NR concentration 270 nM)"
data_value = -0.158

[[record]]
seq_text = "CGTCAAAGTTCAACTCAGGTAACGTAAAGCACGC"
system_under_test = "VDR homodimer (NR concentration 270 nM)"
data_value = 4.21

[[record]]
seq_text = "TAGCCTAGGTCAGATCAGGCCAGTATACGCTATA"
system_under_test = "VDR homodimer (NR concentration 270 nM)"
data_value = -0.305

[[record]]
seq_text = "CGGCCAAGGTCATAGGAGGTCAGTGAAGACAGAT"
system_under_test = "VDR homodimer (NR concentration 270 nM)"
data_value = 4.3

[[record]]
seq_text = "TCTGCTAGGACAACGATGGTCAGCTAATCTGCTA"
system_under_test = "VDR homodimer (NR concentration 270 nM)"
data_value = -0.943

[[record]]
seq_text = "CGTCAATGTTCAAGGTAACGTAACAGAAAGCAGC"
system_under_test = "VDR homodimer (NR concentration 270 nM)"
data_value = 0.0285

[[record]]
seq_text = "TTACCAAGGTGAGCTGCGGTCGTTGATCCAACTC"
system_under_test = "VDR homodimer (NR concentration 270 nM)"
data_value = -0.523

[[record]]
seq_text = "ATATGTAGGTGATCGGGTCATTCAGTTTGCGCAT"
system_under_test = "VDR homodimer (NR concentration 270 nM)"
data_value = 3.46

[[record]]
seq_text = "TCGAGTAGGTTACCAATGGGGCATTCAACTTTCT"
system_under_test = "VDR homodimer (NR concentration 270 nM)"
data_value = -0.194

[[record]]
seq_text = "AGAACGAGGGCACGCAGAGTTGATAGCAGAGTAG"
system_under_test = "VDR homodimer (NR concentration 270 nM)"
data_value = 1.86

[[record]]
seq_text = "CGAACTAGGTCATCCACGACAGTGAATACATTGA"
system_under_test = "VDR homodimer (NR concentration 270 nM)"
data_value = 1.44

[[record]]
seq_text = "GCTAGCAGGCCAATTGGGTCACTCAATGACGGGC"
system_under_test = "VDR homodimer (NR concentration 270 nM)"
data_value = -0.328

[[record]]
seq_text = "TCTATTATTTGATTAGGGCAACCGAAACAGCGGA"
system_under_test = "VDR homodimer (NR concentration 270 nM)"
data_value = 1.47

[[record]]
seq_text = "CGAACTAGGTCAAGGACAGTGATTCTCCGCACGC"
system_under_test = "VDR homodimer (NR concentration 270 nM)"
data_value = 0.466

[[record]]
seq_text = "TAGCCTAGGTCAGATCGGGCCAGTGTACGCTATA"
system_under_test = "VDR homodimer (NR concentration 270 nM)"
data_value = -0.614

[[record]]
seq_text = "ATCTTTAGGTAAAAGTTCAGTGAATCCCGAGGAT"
system_under_test = "VDR homodimer (NR concentration 270 nM)"
data_value = 1.63

[[record]]
seq_text = "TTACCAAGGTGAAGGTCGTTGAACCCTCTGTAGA"
system_under_test = "VDR homodimer (NR concentration 270 nM)"
data_value = 1.63

[[record]]
seq_text = "CCTATTAGTTGACAATAAGGGCAACCGAAGCTCG"
system_under_test = "VDR homodimer (NR concentration 270 nM)"
data_value = 0.927

[[record]]
seq_text = "CGTCCAAGGTCAAGGTCAGTGTAAGAGACTCGAA"
system_under_test = "VDR homodimer (NR concentration 270 nM)"
data_value = 3.32

[[record]]
seq_text = "TCTCGGAGGACACGAAAGGTCATAGCTCGACATC"
system_under_test = "VDR homodimer (NR concentration 270 nM)"
data_value = 2.67

[[record]]
seq_text = "GTACCGAGGTGAATAGGTCGTTGATGAGTAGGCG"
system_under_test = "VDR homodimer (NR concentration 270 nM)"
data_value = 0.202

[[record]]
seq_text = "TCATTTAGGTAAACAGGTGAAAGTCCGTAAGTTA"
system_under_test = "VDR homodimer (NR concentration 270 nM)"
data_value = 0.754

[[record]]
seq_text = "CTACCGAGGTGAACAAGGTCGTTGATTACTATTC"
system_under_test = "VDR homodimer (NR concentration 270 nM)"
data_value = 3.13

[[record]]
seq_text = "AGAATCAGGTTACCAAAGATCAGGGAAACGCTTG"
system_under_test = "VDR homodimer (NR concentration 270 nM)"
data_value = -0.469

[[record]]
seq_text = "CCTACTGGGCCAACGTCATTGATCAGTCAAAGCA"
system_under_test = "VDR homodimer (NR concentration 270 nM)"
data_value = -0.545

[[record]]
seq_text = "AGAACGTGGGCACGCTGAGTTGATAGCAGAGTAG"
system_under_test = "VDR homodimer (NR concentration 270 nM)"
data_value = -0.131

[[record]]
seq_text = "TCATATAGGTAATACATGTGAAAGTCGGCATCTA"
system_under_test = "VDR homodimer (NR concentration 270 nM)"
data_value = 0.128

[[record]]
seq_text = "CCTCGGAGGACAGAAAGTCAGAGCTGTCCGCTTT"
system_under_test = "VDR homodimer (NR concentration 270 nM)"
data_value = -0.657

[[record]]
seq_text = "ACTAGTTGGTCAGCGGAGGTCACACACAATTCGG"
system_under_test = "VDR homodimer (NR concentration 270 nM)"
data_value = 3.02

[[record]]
seq_text = "CTACCAAGGTGAACAAAGTCGTTGATTACTATTC"
system_under_test = "VDR homodimer (NR concentration 270 nM)"
data_value = 0.24

[[record]]
seq_text = "ATCTCTAGGTAAGACTCAGTACAGTGAAGAACGC"
system_under_test = "VDR homodimer (NR concentration 270 nM)"
data_value = 0.66

[[record]]
seq_text = "TCATATAGGTAAAGGTGACAGTCGAACGATATGA"
system_under_test = "VDR homodimer (NR concentration 270 nM)"
data_value = -0.0372

[[record]]
seq_text = "CCTAGCAGGCCGGGGTCACTCAAGCATTTCGCTT"
system_under_test = "VDR homodimer (NR concentration 270 nM)"
data_value = 3.75

[[record]]
seq_text = "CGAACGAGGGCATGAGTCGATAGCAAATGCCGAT"
system_under_test = "VDR homodimer (NR concentration 270 nM)"
data_value = 0.974

